# System tested: UniProt Q96EB6
# Sequence (Q96EB6 1-747): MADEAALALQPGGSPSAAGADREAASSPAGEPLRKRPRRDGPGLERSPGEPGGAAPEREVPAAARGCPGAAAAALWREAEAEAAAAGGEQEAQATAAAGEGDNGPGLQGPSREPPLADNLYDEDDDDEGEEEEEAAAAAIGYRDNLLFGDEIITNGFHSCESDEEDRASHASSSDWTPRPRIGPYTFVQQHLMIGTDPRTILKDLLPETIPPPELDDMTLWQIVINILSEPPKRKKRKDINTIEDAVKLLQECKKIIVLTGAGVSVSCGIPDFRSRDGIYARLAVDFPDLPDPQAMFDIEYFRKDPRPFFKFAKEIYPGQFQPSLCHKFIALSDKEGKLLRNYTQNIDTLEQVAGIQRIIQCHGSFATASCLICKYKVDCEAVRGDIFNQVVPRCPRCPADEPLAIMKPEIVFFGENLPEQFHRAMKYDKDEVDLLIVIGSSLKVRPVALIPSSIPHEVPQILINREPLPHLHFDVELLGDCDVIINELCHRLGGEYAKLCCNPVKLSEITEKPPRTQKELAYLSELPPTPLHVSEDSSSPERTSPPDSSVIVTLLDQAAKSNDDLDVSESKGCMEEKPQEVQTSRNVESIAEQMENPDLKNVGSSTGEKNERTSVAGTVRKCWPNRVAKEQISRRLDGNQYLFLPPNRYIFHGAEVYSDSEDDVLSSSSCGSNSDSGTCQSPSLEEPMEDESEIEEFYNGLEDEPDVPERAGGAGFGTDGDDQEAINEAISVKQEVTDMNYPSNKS
# Test summary: Mass spectrometry based assay to identify modulators of SIRT1 activity (deacetylation of p53-based acetylated peptide)
# Format: biochemical
# Condition: SIRT1 activation; 10 nM SIRT1, 0.5 μM peptide substrate, 120 μM βNAD+, 25 minutes at 25° C.
Parameter: EC1.5 μM

Example entries and their recorded answers appear below.
| Compound | EC1.5 μM |
| --- | --- |
| Cn1cncc1-c1nc2c(NC(=O)c3cnccn3)cccc2c(=O)n1C | B (EC1.5 1-25 μM) |
| Cn1c(-c2cnccn2)nc2c(C(=O)Nc3ccccn3)cccc2c1=O | C (EC1.5>25 μM) |
| Cn1c(-c2cccc(C(F)(F)F)c2)nc2c(NC(=O)C3CCC(=O)N3)cccc2c1=O (stereo not shown) | C (EC1.5>25 μM) |
| Cn1c(-c2cccc(C(F)(F)F)c2)nc2c(C(=O)Nc3nccs3)cccc2c1=O | B (EC1.5 1-25 μM) |

The recorded EC1.5 μM for `O=C(Nc1cnccn1)c1cccc2c(=O)cc(-c3cccc(Cl)c3)[nH]c12` is A (EC1.5<1.0 μM)

# EC1.5 μM of `CCCn1c(-c2cccc(C(F)(F)F)c2)nc2c(C(=O)Nc3ccccn3)cccc2c1=O` = C (EC1.5>25 μM)

The reported EC1.5 μM of the compound `Cn1c(-c2cccc(C(F)(F)F)c2)nc2c(C(=O)Nc3cccc(N4CCCC4)n3)cccc2c1=O` was B (EC1.5 1-25 μM)

Hey, just so you know, these numbers are from patent US9326986B2.
